Test system: CYP2B6 mRNA
assay.overview: CYP induction, mRNA, primary cultured human hepatocytes
settings: primary cultured human hepatocytes, Fold Induction (CYP2B6 mRNA expression), hepatocyte Lot 348B, 10 µM
experimental.readout: fold induction at 48 h, 10 µM
# respond with the number and nothing more

INPUT: Report measured fold induction at 48 h, 10 µM; entry is CCc1cc(Cl)c(OC)c(N2CCN(CC(O)CCNC(=O)c3cc4ccccc4[nH]3)CC2)c1 (stereo not shown) [R-VK4-116]
OUTPUT: 1.1

====

target.or.system: CYP2C8 (Homo sapiens)
Sequence (P10632 whole entry): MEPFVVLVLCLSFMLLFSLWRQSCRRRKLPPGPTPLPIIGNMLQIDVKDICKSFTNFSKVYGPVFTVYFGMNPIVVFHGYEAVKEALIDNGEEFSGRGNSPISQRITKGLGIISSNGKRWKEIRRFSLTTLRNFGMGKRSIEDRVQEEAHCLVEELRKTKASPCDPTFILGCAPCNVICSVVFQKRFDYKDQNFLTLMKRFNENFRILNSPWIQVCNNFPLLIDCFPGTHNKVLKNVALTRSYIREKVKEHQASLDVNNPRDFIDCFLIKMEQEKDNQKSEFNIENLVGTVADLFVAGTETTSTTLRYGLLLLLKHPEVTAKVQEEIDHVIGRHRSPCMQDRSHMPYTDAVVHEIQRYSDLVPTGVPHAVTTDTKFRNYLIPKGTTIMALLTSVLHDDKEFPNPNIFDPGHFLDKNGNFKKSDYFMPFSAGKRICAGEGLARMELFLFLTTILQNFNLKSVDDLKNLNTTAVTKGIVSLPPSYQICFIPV
assay.overview: CYP inhibition in human liver microsomes
settings: human, microsomes
experimental.readout: activity at 20 min, 30 µM (%)
Give the number; % is assumed, so skip it.

INPUT: Consider the compound C=C(C)[C@@H]1CCC2=CC(=O)C[C@@H](C)[C@]2(C)C1 . State its measured activity at 20 min, 30 µM.
OUTPUT: 78.8

====

System: CYP2B6
assay.overview: CYP induction, mRNA, primary cultured human hepatocytes
settings: primary cultured human hepatocytes, Fold Induction (CYP2B6 mRNA expression), hepatocyte Lot 336, 0.01 µM
experimental.readout: fold induction at 48 h, 0.01 µM
Kindly provide the number alone.

INPUT: Give a short answer stating reported fold induction at 48 h, 0.01 µM for CCc1cc(Cl)c(OC)c(N2CCN(CC(O)CCNC(=O)c3cc4ccccc4[nH]3)CC2)c1 (stereo not shown) .
OUTPUT: 1

====

target.or.system: CYP2B6 (Homo sapiens)
Sequence (P20813 1-491): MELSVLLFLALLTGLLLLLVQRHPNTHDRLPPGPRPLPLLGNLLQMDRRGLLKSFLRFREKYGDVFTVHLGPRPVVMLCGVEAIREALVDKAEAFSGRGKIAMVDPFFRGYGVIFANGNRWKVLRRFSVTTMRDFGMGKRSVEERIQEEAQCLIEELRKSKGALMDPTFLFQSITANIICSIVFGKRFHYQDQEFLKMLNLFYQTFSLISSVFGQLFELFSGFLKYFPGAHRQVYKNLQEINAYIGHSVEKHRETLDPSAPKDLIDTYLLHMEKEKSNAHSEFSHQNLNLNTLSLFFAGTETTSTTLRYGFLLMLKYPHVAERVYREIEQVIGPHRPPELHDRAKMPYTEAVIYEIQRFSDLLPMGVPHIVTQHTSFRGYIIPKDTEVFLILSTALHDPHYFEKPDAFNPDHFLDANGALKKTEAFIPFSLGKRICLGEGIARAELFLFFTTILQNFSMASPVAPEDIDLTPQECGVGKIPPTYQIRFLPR
assay.overview: CYP inhibition in human liver microsomes
settings: human, human liver microsomes, probe bupropion
experimental.readout: activity at 20 min, 100 µM (%)
Please state the figure in %; there is no need to write the unit.

INPUT: Quickly give me recorded activity at 20 min, 100 µM for CCc1cc(Cl)c(OC)c(N2CCN(CC(O)CCNC(=O)c3cc4ccccc4[nH]3)CC2)c1 (stereo not shown)
OUTPUT: 97

====

assay.overview: Plasma protein binding, Sephadex G-25 gel filtration
Assay type: in vitro ADME
settings: rat, plasma, nominal 0.5 μM, read-out: % Bound (converted)
experimental.readout: fraction unbound at 2 h, 0.5 μM
Reply with the value as a number alone.

INPUT: # return recorded fraction unbound at 2 h, 0.5 μM for entry CCc1cc(Cl)c(OC)c(N2CCN(CC(O)CCNC(=O)c3cc4ccccc4[nH]3)CC2)c1 (stereo not shown)
OUTPUT: 0.164
